Target: Protein kinase C iota type (Homo sapiens)
Sequence (whole entry): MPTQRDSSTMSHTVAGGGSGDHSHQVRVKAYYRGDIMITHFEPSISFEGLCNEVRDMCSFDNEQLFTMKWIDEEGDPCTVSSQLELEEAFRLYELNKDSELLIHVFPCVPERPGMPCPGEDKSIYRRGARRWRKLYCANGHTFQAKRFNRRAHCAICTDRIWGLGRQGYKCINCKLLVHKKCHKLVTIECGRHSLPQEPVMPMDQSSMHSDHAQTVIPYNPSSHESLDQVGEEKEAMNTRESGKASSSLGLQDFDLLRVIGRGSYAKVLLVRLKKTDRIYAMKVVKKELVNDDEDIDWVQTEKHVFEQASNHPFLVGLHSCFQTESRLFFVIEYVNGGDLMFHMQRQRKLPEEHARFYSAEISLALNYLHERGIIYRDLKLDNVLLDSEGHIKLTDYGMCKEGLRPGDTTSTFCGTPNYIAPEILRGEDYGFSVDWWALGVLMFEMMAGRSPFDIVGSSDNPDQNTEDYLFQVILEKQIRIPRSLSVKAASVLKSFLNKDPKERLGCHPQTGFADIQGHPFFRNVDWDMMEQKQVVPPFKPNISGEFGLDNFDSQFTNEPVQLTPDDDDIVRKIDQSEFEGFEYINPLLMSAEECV
Conditions: at 0.1 µM
Description: GSK_PKIS: PKC-iota mean inhibition at 0.1 uM [Nanosyn]
endpoint label: inhibition (%)
Response body: numeric value in %, unit text excluded.

CCn1c(-c2nonc2N)nc2c(C#CC(C)(C)O)nc(O[C@@H](CN)c3ccccc3)cc21; 3.68
NC(=O)c1sc(-n2cnc3cc(C(F)(F)F)ccc32)cc1OCc1ccccc1Br; 0.97
Cc1cc(-c2ccco2)cc(C)c1/C=C/c1cncc(-c2nn[nH]n2)c1; 0.32
CCn1c(-c2nonc2N)nc2c(C#CC(C)(C)O)ncc(OCC3CCNCC3)c21; -0.7
COc1cccc(COc2cc(-n3cnc4ccccc43)sc2C(N)=O)c1; -0.74

Q: Write inhibition of NS(=O)(=O)c1ccc(-c2ccc3c(NC(=O)C4CC4)n[nH]c3c2)cc1 ; system used: Protein kinase C iota type (Homo sapiens)
Result: 1.06

###

Biological target: Serine/threonine-protein kinase 3 (Homo sapiens);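 also: reported value is the mean percent inhibition of MST2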
Sequence (whole entry): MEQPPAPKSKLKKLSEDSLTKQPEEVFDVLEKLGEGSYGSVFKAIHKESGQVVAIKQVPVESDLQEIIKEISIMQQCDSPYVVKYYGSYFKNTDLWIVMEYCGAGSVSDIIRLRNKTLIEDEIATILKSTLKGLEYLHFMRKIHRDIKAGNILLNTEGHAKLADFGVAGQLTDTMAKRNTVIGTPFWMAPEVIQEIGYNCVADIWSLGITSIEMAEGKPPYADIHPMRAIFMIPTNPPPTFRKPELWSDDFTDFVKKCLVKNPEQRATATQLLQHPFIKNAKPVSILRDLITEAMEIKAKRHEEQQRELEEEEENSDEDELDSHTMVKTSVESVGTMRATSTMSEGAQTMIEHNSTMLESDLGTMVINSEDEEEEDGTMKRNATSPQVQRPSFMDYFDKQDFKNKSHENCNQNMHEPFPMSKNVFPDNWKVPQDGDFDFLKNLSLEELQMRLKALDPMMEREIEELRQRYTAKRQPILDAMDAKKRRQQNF
Settings: at 0.1 µM
endpoint label: inhibition (%)
Answer with a number only, understood to be in %.

Fc1ccc(-c2ncn(C3CCNCC3)c2-c2ccnc(Oc3ccccc3)n2)cc1; 1.01
Cc1cc(-c2ccco2)cc(C)c1/C=C/c1cncc(-c2nn[nH]n2)c1; -0.6
CCn1c(-c2nonc2N)nc2c(C#CCN)ncc(OCCCN)c21; 2.31
NS(=O)(=O)c1ccc(-c2ccc3c(NC(=O)C4CC4)n[nH]c3c2)cc1; 4.35

Q: For the compound COc1cc(C=NNc2ncnc3c2cnn3Cc2ccccc2)ccc1O , give its reported inhibition.
Result: -4.05

###

Test system: Receptor-type tyrosine-protein kinase FLT3 (Homo sapiens), P36888 [D835Y]
Details: at 0.1 µM
Form field: inhibition (one value per entry).
Supply the numeric figure in %, leaving out any unit text.

Some entries whose results are on file:
COc1cc2c(cc1Nc1nc(Nc3ccsc3C(N)=O)c3cc[nH]c3n1)N(C(=O)CN(C)C)CCC2; -8.75
CCn1c(-c2nonc2N)nc2c(C#CC(C)(C)O)nc(O[C@@H](CN)c3ccccc3)cc21; 2.74
Fc1ccc(-c2ncn(C3CCNCC3)c2-c2ccnc(Oc3ccccc3)n2)cc1; -4.18

Q: Tell me its inhibition given NC(=O)c1sc(-n2cnc3cc(C(F)(F)F)ccc32)cc1OCc1ccccc1Br as the entry.
Result: -3.16

###

Measured inhibition, listed per entry.
Molecular target: Protein kinase C beta type (Homo sapiens)
Details: at 1 µM
Description: GSK_PKIS: PKC-beta2 (splice variant) mean inhibition at 1 uM [Nanosyn]
Use % as the unit, but write only the number.

These solved cases illustrate the format of a correct answer.
Cc1cc(-c2ccco2)cc(C)c1/C=C/c1cncc(-c2nn[nH]n2)c1; -0.06
NC(=O)c1sc(-n2cnc3cc(C(F)(F)F)ccc32)cc1OCc1ccccc1Br; 0.57
COc1cccc(COc2cc(-n3cnc4ccccc43)sc2C(N)=O)c1; 1.77
CCn1c(-c2nonc2N)nc2c(C#CC(C)(C)O)ncc(OCC3CCNCC3)c21; 37.6
Nc1nonc1-c1nc2cnccc2n1C1CCCCC1; 33.7

Lab note: next compound to report on.
Q: Name the value of inhibition reported for COc1cc(C=NNc2ncnc3c2cnn3Cc2ccccc2)ccc1O when tested on Protein kinase C beta type (Homo sapiens).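 Also: GSK PKIS screen, average inhibition of the PKC-beta2 splice variant.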
Result: 1.44

###

Target: Tyrosine-protein kinase Lyn (Homo sapiens) (UniProt P07948);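 also: kinase tested as its LYN B splice variant, values given as mean percent inhibition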
Sequence (P07948 2-512 limits assumed): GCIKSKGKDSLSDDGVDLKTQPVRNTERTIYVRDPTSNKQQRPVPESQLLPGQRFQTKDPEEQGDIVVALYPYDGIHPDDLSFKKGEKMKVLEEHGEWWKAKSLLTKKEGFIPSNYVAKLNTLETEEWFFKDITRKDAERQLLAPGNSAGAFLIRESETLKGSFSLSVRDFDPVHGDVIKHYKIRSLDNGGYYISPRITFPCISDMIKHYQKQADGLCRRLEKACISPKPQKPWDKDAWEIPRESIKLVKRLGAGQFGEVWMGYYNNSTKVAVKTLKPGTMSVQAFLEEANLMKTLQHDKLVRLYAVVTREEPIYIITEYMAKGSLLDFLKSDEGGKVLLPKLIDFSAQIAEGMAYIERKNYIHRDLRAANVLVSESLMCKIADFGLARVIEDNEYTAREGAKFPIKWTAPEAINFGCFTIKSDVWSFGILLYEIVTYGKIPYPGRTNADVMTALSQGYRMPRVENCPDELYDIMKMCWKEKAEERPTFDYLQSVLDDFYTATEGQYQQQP
Conditions: at 1 µM
Description: GSK_PKIS: LYN B (splice variant) mean inhibition at 1 uM [Nanosyn]
Below, each entry is listed with its recorded inhibition.
Use % as the unit, but write only the number.

Completed entries (count: 3):
COc1cccc(-n2ncc3c(N/N=C/c4ccncc4)ncnc32)c1; 85
Fc1ccc(-c2ncn(C3CCNCC3)c2-c2ccnc(Oc3ccccc3)n2)cc1; 1.56
NS(=O)(=O)c1ccc(-c2ccc3c(NC(=O)C4CC4)n[nH]c3c2)cc1; 3.29

Q: Give the reported inhibition for this molecule. COc1cc2c(cc1Nc1nc(Nc3ccsc3C(N)=O)c3cc[nH]c3n1)N(C(=O)CN(C)C)CCC2
Result: 2.25

Q: Provide measured inhibition value, entry: NC(=O)c1sc(-n2cnc3cc(C(F)(F)F)ccc32)cc1OCc1ccccc1Br
Result: 3.91

Q: Return inhibition (reported value) for this molecule: COc1cccc(COc2cc(-n3cnc4ccccc43)sc2C(N)=O)c1
Result: -1.14

Q: Fill in inhibition for record Nc1nonc1-c1nc2cnccc2n1C1CCCCC1
Result: -0.59

Q: Note down inhibition recorded for CCn1c(-c2nonc2N)nc2c(C#CCN)ncc(OCCCN)c21
Result: 0.49

###

Biological target: Serine/threonine-protein kinase Nek7 (Homo sapiens) (UniProt Q8TDX7);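 also: figures are averaged percent inhibition of NEK7 kinase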
Sequence (Q8TDX7 whole entry, looked up): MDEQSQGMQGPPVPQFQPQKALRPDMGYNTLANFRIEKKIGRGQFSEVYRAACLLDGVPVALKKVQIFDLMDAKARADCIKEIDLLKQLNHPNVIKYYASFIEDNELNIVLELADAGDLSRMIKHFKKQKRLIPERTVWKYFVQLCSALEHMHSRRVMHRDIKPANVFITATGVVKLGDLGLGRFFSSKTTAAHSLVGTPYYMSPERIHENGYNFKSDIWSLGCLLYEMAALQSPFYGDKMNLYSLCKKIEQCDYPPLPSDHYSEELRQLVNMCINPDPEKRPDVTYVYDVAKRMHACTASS
Conditions: at 0.1 µM
inhibition reference
Field: numeric (%). Do not append units.

NS(=O)(=O)c1ccc(-c2ccc3c(NC(=O)C4CC4)n[nH]c3c2)cc1; 2.6

Q: Give the measured inhibition for Fc1ccc(-c2ncn(C3CCNCC3)c2-c2ccnc(Oc3ccccc3)n2)cc1
Result: 2.34

Q: Recall and state the measured inhibition for NS(=O)(=O)c1ccc(N/C=C2\C(=O)Nc3ccc4ncsc4c32)cc1 .
Result: 1.21

Q: Supply recorded inhibition for Nc1nonc1-c1nc2cnccc2n1C1CCCCC1 here.
Result: 0.07

###

Collected inhibition values appear next to each entry.
Biological target: Muscle, skeletal receptor tyrosine-protein kinase (Homo sapiens) (UniProt O15146);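 also: reported value is the mean percent inhibition of MuSK kinase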
Sequence (O15146 whole entry): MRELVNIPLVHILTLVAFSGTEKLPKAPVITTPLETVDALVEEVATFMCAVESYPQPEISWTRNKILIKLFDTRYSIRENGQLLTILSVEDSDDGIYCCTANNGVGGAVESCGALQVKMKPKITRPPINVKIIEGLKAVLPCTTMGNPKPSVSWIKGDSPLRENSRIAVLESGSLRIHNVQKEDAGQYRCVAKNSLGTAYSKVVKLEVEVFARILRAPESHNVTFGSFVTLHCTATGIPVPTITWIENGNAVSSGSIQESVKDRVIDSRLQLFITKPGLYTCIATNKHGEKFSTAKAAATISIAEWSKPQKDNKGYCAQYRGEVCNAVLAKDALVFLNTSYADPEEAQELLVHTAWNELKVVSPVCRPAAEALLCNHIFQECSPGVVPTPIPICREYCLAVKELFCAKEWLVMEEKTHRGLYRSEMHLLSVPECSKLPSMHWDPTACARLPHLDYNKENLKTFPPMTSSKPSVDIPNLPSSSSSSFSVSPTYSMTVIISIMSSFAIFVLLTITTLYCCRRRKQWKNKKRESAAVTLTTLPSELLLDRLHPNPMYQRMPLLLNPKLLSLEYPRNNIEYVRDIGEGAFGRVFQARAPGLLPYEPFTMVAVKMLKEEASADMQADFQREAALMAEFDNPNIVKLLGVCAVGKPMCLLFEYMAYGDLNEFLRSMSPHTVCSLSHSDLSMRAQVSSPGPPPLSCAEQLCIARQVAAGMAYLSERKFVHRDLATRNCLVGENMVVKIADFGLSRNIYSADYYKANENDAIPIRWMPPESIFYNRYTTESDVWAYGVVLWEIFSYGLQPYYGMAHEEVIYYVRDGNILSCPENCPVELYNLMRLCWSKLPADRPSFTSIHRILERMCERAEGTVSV
Settings: at 1 µM
Please reply with the bare figure in % and do not write the unit itself.

Fc1ccc(-c2ncn(C3CCNCC3)c2-c2ccnc(Oc3ccccc3)n2)cc1; -0.77
COc1cc2c(cc1Nc1nc(Nc3ccsc3C(N)=O)c3cc[nH]c3n1)N(C(=O)CN(C)C)CCC2; 28.6
NS(=O)(=O)c1ccc(N/C=C2\C(=O)Nc3ccc4ncsc4c32)cc1; 51.2
COc1cccc(-n2ncc3c(N/N=C/c4ccncc4)ncnc32)c1; 45.6

Q: Using known records, supply inhibition for CCn1c(-c2nonc2N)nc2c(C#CC(C)(C)O)ncc(OC[C@@H]3CCCN3)c21
Result: -3.74

###

Target: Proto-oncogene tyrosine-protein kinase ROS (Homo sapiens) (UniProt P08922);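 also: value given is the mean percent inhibition of ROS kinase activity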
Sequence (P08922 whole entry): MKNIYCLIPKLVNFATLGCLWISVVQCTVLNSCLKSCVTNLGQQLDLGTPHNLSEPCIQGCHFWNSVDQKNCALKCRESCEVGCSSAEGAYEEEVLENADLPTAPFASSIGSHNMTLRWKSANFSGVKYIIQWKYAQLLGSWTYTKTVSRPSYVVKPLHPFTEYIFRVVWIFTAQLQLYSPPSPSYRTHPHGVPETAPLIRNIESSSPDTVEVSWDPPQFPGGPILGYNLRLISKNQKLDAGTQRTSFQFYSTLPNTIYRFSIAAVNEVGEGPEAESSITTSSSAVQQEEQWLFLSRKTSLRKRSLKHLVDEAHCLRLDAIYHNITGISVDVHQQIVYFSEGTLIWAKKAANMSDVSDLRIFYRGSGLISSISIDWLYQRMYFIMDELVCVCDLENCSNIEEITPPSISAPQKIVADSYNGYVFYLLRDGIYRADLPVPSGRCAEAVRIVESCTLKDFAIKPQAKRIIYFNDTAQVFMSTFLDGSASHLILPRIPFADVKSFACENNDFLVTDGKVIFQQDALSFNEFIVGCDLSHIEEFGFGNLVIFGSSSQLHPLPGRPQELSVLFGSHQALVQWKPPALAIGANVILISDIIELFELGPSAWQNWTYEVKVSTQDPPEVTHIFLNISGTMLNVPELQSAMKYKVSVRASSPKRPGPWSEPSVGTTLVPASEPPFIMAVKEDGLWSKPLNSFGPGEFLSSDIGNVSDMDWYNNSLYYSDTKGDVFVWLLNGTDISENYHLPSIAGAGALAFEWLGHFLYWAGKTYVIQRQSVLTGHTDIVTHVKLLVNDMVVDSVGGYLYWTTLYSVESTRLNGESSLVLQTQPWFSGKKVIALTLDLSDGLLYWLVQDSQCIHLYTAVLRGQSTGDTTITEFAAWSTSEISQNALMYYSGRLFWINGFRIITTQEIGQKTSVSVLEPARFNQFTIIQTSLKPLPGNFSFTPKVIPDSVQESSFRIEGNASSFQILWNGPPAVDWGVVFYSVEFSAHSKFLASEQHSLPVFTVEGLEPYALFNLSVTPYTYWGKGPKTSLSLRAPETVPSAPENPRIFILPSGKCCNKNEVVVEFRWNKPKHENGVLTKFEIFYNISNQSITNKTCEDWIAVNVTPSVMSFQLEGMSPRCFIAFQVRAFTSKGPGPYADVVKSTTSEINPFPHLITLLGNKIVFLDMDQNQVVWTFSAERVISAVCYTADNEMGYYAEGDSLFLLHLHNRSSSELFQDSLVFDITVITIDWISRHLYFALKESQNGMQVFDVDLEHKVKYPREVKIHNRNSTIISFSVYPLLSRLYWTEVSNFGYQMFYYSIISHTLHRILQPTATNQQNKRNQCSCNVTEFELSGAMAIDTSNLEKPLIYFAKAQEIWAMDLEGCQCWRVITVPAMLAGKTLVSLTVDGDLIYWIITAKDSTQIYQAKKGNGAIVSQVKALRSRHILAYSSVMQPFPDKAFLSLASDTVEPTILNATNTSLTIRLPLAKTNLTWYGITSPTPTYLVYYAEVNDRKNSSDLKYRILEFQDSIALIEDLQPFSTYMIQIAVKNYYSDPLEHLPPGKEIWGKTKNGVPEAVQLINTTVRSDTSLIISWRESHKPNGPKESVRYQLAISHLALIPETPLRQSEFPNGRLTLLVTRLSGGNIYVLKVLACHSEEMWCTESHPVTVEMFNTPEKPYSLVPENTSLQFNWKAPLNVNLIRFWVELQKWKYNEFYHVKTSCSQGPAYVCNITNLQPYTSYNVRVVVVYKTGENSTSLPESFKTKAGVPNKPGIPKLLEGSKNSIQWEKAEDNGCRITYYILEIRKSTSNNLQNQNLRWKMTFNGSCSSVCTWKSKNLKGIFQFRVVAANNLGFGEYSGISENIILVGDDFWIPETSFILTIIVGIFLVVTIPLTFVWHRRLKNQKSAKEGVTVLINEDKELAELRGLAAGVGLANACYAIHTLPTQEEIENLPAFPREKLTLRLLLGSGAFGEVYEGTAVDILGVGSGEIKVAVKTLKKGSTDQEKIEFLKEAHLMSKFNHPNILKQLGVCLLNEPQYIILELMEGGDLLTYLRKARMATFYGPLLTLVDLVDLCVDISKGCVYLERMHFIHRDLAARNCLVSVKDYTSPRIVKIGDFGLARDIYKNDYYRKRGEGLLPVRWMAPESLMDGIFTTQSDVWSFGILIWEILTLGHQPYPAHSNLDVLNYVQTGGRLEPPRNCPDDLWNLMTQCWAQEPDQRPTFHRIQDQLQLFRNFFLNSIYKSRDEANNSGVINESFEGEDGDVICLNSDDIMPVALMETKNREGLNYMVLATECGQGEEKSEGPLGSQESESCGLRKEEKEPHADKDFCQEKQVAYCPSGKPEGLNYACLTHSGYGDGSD
Settings: at 1 µM
inhibition by entry:
Write the numeric value and append its unit.

Example entries and their recorded answers appear below.
COc1cccc(COc2cc(-n3cnc4ccccc43)sc2C(N)=O)c1; 3.74%
CCn1c(-c2nonc2N)nc2c(C#CCN)ncc(OCCCN)c21; 4.46%
COc1cc2c(cc1Nc1nc(Nc3ccsc3C(N)=O)c3cc[nH]c3n1)N(C(=O)CN(C)C)CCC2; 82.1%
NS(=O)(=O)c1ccc(N/C=C2\C(=O)Nc3ccc4ncsc4c32)cc1; 17%
COc1cc(C=NNc2ncnc3c2cnn3Cc2ccccc2)ccc1O; 16.4%

Q: Recall and state the measured inhibition for NS(=O)(=O)c1ccc(-c2ccc3c(NC(=O)C4CC4)n[nH]c3c2)cc1 .
Result: 2.15%

Q: Using the record for CCn1c(-c2nonc2N)nc2c(C#CC(C)(C)O)nc(O[C@@H](CN)c3ccccc3)cc21 , state its measured inhibition.
Result: 11.1%

Q: Specify reported inhibition for the compound shown: Cc1cc(-c2ccco2)cc(C)c1/C=C/c1cncc(-c2nn[nH]n2)c1
Result: 3.62%
